Assay: NCI Yeast Anticancer Drug Screen. Data for the rad50 strain (AID 155);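 note: 0% = growth of vehicle-only cultures of the same strain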
Conditions: S. cerevisiae rad50 strain growth inhibition; at 50.0 µM; stronger effect = higher value
This is part of a sample that, as a whole, favours compounds with a hit. Of some 79,000 tested, about 15% had one in any assay. Active and inactive are the calls of the source. Cut-off read from the data, not from the text of the source: active = growth inhibition above about 70%; inactive = the rest.
Consider the following compounds; for each one, report its growth inhibition.

-- ask Check the records and state growth inhibition for O=C(O)C1(N(CCO)CCO)CCCC1
-- reply -15.6% (inactive)

-- ask Check the records and state growth inhibition for O=c1oc2ccccc2c(O)c1C=NC(=S)c1ccncc1
-- reply -30.6% (inactive)

-- ask Check the records and state growth inhibition for Cc1cc(Cl)ccc1N1C(=O)C(=O)C(c2nc3ccccc3s2)C(=O)C1=O
-- reply -4.1% (inactive)

-- ask Check the records and state growth inhibition for N#CC(c1ccccc1)N(CCc1ccccc1)C(=O)Oc1ccccc1 (centres undefined)
-- reply -14.6% (inactive)

-- ask Check the records and state growth inhibition for O=C(N/N=C/c1cccc(F)c1)c1ccncc1
-- reply 8.4% (inactive)

-- ask Check the records and state growth inhibition for O=C(O)CCCc1ccc(Oc2ccccc2)cc1
-- reply -6.05% (inactive)

-- ask Check the records and state growth inhibition for CC(C)(C)C1CCCC(=O)C1 (centres undefined)
-- reply 8.3% (inactive)

-- ask Check the records and state growth inhibition for CC(Cl)CN1c2ccccc2Sc2ccc(Cl)cc21 (centres undefined)
-- reply 33% (inactive)

-- ask Check the records and state growth inhibition for COc1ccc2c(c1)CN(C)c1ccc(OC)cc1CN2C
-- reply 10.7% (inactive)

-- ask Check the records and state growth inhibition for CCCCCCCCCCCCCCCC[Si](Cl)(Cl)Cl
-- reply -0.6% (inactive)

-- ask Check the records and state growth inhibition for C/C(=N\NC(=S)NCCCCNC(=S)N/N=C(\C)c1ccccn1)c1ccccc1
-- reply -4.15% (inactive)

-- ask Check the records and state growth inhibition for CCOC(=O)NCC(C)(C)C
-- reply -2.4% (inactive)

-- ask Check the records and state growth inhibition for CCN(CC)CC(c1ccccc1)C(C)(O)c1ccccc1 (centres undefined)
-- reply -2% (inactive)

-- ask Check the records and state growth inhibition for CSc1cc(Cl)c(C)cc1S(=O)(=O)n1cc[nH]c1=O
-- reply -2.4% (inactive)

-- ask Check the records and state growth inhibition for N#Cc1nc(Cc2ccccc2)oc1N
-- reply 27.3% (inactive)

-- ask Check the records and state growth inhibition for CON(C)c1nc2ccccc2o1
-- reply -22.1% (inactive)

-- ask Check the records and state growth inhibition for CC(=O)NC(CCCCNC(=O)N(C)N=O)C(=O)NCc1ccccc1 (centres undefined)
-- reply -41.1% (inactive)

-- ask Check the records and state growth inhibition for O=[N+]([O-])c1cc(N(c2ccccc2)c2ccccc2)cc([N+](=O)[O-])c1
-- reply 2.05% (inactive)

-- ask Check the records and state growth inhibition for CSC(/C=C/c1ccccc1)=Nc1ccccc1
-- reply 3.2% (inactive)

-- ask Check the records and state growth inhibition for O=c1[nH]c2ccccc2nc1/C=C/n1c(=S)[nH]c2ccccc21
-- reply -31.4% (inactive)

-- ask Check the records and state growth inhibition for COc1cc2c(c(OC)c1OC)-c1ccc(SC)c(=O)cc1[C@@H](NC(=O)CO)CC2
-- reply 30% (inactive)

-- ask Check the records and state growth inhibition for CC(C)(C)N=c1n(C(C)(C)C)oc(=O)n1C(C)(C)C
-- reply -11.8% (inactive)

-- ask Check the records and state growth inhibition for CCc1ccc2[nH]nc(CCC(=O)O)c(=O)c2c1
-- reply -1.5% (inactive)

-- ask Check the records and state growth inhibition for COc1ccc2[nH]cc(CC(N)=O)c2c1
-- reply -25.8% (inactive)

-- ask Check the records and state growth inhibition for CCOc1cn(C2CC(O)C(CO)O2)c(=O)[nH]c1=O (centres undefined)
-- reply -1.35% (inactive)

-- ask Check the records and state growth inhibition for O=S1(=O)CCNc2ccccc2O1
-- reply -3.15% (inactive)

-- ask Check the records and state growth inhibition for NC(=O)NCc1ccc(CNC(N)=O)cc1
-- reply 11.3% (inactive)

-- ask Check the records and state growth inhibition for Nc1ccc(S(=O)(=O)O)cc1N
-- reply -15.3% (inactive)

-- ask Check the records and state growth inhibition for CCOC(=O)C(CCC(C)(C)SCc1ccccc1)(NC(C)=O)C(=O)OCC
-- reply 25.8% (inactive)

-- ask Check the records and state growth inhibition for Cc1cccc(C(=O)OCCBr)c1
-- reply 27.1% (inactive)

-- ask Check the records and state growth inhibition for NC1=Nc2ncccc2C(=O)NN1
-- reply -17.4% (inactive)

-- ask Check the records and state growth inhibition for Nc1ccc(Cl)cc1[N+](=O)[O-]
-- reply 4.85% (inactive)

-- ask Check the records and state growth inhibition for CC1=NN(C(=O)c2ccc(Cl)cc2)C(=O)C1N=Nc1ccc(S(=O)(=O)Nc2ccccn2)cc1 (centres undefined)
-- reply -0.85% (inactive)

-- ask Check the records and state growth inhibition for CC(=O)C(OCCCl)OCCCl
-- reply 2.9% (inactive)

-- ask Check the records and state growth inhibition for Cc1cc(=O)n2ccnc2[nH]1
-- reply 24.2% (inactive)

-- ask Check the records and state growth inhibition for O=C(O)c1cccc(C2=CCCC2)c1
-- reply 15.2% (inactive)

-- ask Check the records and state growth inhibition for NS(=O)(=O)c1ccc(C(=O)O)s1
-- reply -12.1% (inactive)

-- ask Check the records and state growth inhibition for CC(=O)Nc1nc(Cl)c2ncn(C3CCCO3)c2n1 (centres undefined)
-- reply -13% (inactive)

-- ask Check the records and state growth inhibition for O=C1CCCc2ccc([N+](=O)[O-])c(O)c21
-- reply 11% (inactive)

-- ask Check the records and state growth inhibition for Cc1ccc(NC(=O)Oc2ccccc2C(=O)OCc2ccccc2)cc1
-- reply 5.3% (inactive)

-- ask Check the records and state growth inhibition for C/C(C=C(C#N)C#N)=C\c1ccccc1
-- reply 25.3% (inactive)

-- ask Check the records and state growth inhibition for COc1cc2c(C)nc3c4cc5c(cc4ccc3c2cc1OC)OCO5
-- reply -12.4% (inactive)

-- ask Check the records and state growth inhibition for Clc1ccc(CSc2nnc(SCc3ccc(Cl)c(Cl)c3)c3[nH]cnc23)cc1Cl
-- reply 36.5% (inactive)

-- ask Check the records and state growth inhibition for Cc1cc(=O)[nH]c2c(C)cccc12
-- reply 4% (inactive)

-- ask Check the records and state growth inhibition for CC(O)CCC(C)(C)[N+](=O)[O-] (centres undefined)
-- reply 3.15% (inactive)

-- ask Check the records and state growth inhibition for N#C/C(=C\NC(=S)Nc1ccccc1Cl)C(=O)c1ccc2ccccc2c1
-- reply -24.4% (inactive)

-- ask Check the records and state growth inhibition for CC(C)(C(N)=O)c1ccccc1
-- reply -28.1% (inactive)

-- ask Check the records and state growth inhibition for O=C(C[n+]1cccc(Br)c1)c1ccc(F)cc1
-- reply 16.1% (inactive)

-- ask Check the records and state growth inhibition for CN(C)c1ccc(C2(c3ccc(N(C)C)cc3)NNC(=O)c3ccccc32)cc1
-- reply 17.2% (inactive)

====

Experiment: NCI Yeast Anticancer Drug Screen. Data for the sgs1 mgt1 strain (AID 161);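 note: 0% = growth of cultures given vehicle only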
Conditions: S. cerevisiae sgs1 mgt1 strain, at 50.0 µM, stronger effect = higher value
Protocol: Growth inhibition of yeast strains with defined genetic alterations is measured as a screen for potential anti-cancer activity. Selected strains with alterations in DNA damage repair or cell cycle control were exposed to compounds and growth inhibition was measured relative to vehicle treated controls. The strain used in this assay is sgs1 mgt1
The panel holds about 79,000 compounds, 15% with a hit somewhere; the sample as a whole holds those more often.
Consider the following compounds; for each one, report its growth inhibition.
Entry rule: numbers only, all in %.

-- ask Check the records and state growth inhibition for O=C(Oc1ccc[nH]c1=O)C1CC1
-- reply 67.2

-- ask Check the records and state growth inhibition for COc1ccc(C(=O)c2ccc(OC)c3ccccc23)c2ccccc12
-- reply -1.2

-- ask Check the records and state growth inhibition for O=[N+]([O-])c1ccc(-n2nnc3ccccc32)nc1
-- reply -7.35

-- ask Check the records and state growth inhibition for O=C1CCC([N+](=O)[O-])C(c2ccccc2Cl)N1 (stereo not drawn)
-- reply 20.1

-- ask Check the records and state growth inhibition for Cc1ccc(C(=O)Nc2ccc(CP(=O)(O)O)cc2)cc1NC(=O)c1cccc(N)c1
-- reply -20.4

-- ask Check the records and state growth inhibition for O=S(=O)(O/C(=C(\OS(=O)(=O)C(F)(F)C(F)(F)C(F)(F)C(F)(F)F)c1ccccc1)c1ccccc1)C(F)(F)C(F)(F)C(F)(F)C(F)(F)F
-- reply -23.4

-- ask Check the records and state growth inhibition for COc1cc(-c2ccc([NH2+][B-](F)(F)F)c(OC)c2)ccc1[NH2+][B-](F)(F)F
-- reply 37.3

-- ask Check the records and state growth inhibition for NC(=S)N/N=C1/CC(=O)N(c2ccccc2)C1c1ccccc1 (stereo not drawn)
-- reply 37

-- ask Check the records and state growth inhibition for CCOC(=O)C(C(C)=O)C(c1ccc(N(C)C)cc1)C(C(C)=O)C(=O)OCC (stereo not drawn)
-- reply 7.75

-- ask Check the records and state growth inhibition for Cc1cc(Br)c(NC(=O)c2csnn2)c(Br)c1
-- reply -13.6

-- ask Check the records and state growth inhibition for Cc1cccc(N=Nc2c(C)nc(N)nc2C)c1C
-- reply 2.1

-- ask Check the records and state growth inhibition for CC(=O)C1CC2CCC1C2 (stereo not drawn)
-- reply -8.7

-- ask Check the records and state growth inhibition for O=C(CCN1CCOCC1)Nc1ccc(F)cc1F
-- reply -3.15

-- ask Check the records and state growth inhibition for COc1ccccc1C=Nc1ccc(O)cc1
-- reply 3.9

-- ask Check the records and state growth inhibition for C[C@]12CCC(=O)C=C1CC[C@@H]1[C@@H]2CC[C@]2(C)C(=O)NC(=O)C[C@@H]12
-- reply 32.6

-- ask Check the records and state growth inhibition for C[C@]12CC[C@@H]3c4ccc(OS(C)(=O)=O)cc4CC[C@H]3[C@@H]1CC[C@@H]2OS(C)(=O)=O
-- reply 22.8

-- ask Check the records and state growth inhibition for NCCO
-- reply -11.8

-- ask Check the records and state growth inhibition for CCCCCCCCCCCCCCOc1ccc(OCCCCCCCCC)cc1
-- reply 24.1

-- ask Check the records and state growth inhibition for COCCc1ccncc1
-- reply -31.3

-- ask Check the records and state growth inhibition for O=C(Cn1c(-c2ccccc2)cc2ccccc21)N1CCOCC1
-- reply -39

-- ask Check the records and state growth inhibition for c1ccc2c(c1)[nH]c1ccccc12
-- reply 1.65

-- ask Check the records and state growth inhibition for CC=C/C=C/[C@@H]1O[C@](O)([C@H](CC)C(=O)NC/C=C/C=C(\C)[C@@H](OC)[C@@H](C)[C@@H]2O[C@H](/C=C/C=C/C=C(\C)C(=O)c3c(O)cc[nH]c3=O)[C@H](O)[C@@H]2O)[C@H](O)[C@H](O)C1(C)C
-- reply 38.9

-- ask Check the records and state growth inhibition for NC(=S)N/N=C/C=C/c1ccco1
-- reply 30.6

-- ask Check the records and state growth inhibition for Nc1ccc(S(=O)(=O)n2c(=O)oc3cc(Cl)ccc32)cc1
-- reply 8.9

-- ask Check the records and state growth inhibition for O=C(c1ccccc1)C(N=Nc1ccccc1)(c1ccccc1)c1ccccc1
-- reply -1.8

-- ask Check the records and state growth inhibition for Cc1nc(NS(=O)(=O)c2ccc(N)cc2)nc(C)c1Br
-- reply 4.1

-- ask Check the records and state growth inhibition for COC1=C(N)C(=O)c2ccc(-c3ccccn3)nc2C1=O
-- reply 86.8

-- ask Check the records and state growth inhibition for CCC(=O)Nc1cc(Cl)ccc1C
-- reply 26.3

-- ask Check the records and state growth inhibition for CCC(c1ccc(OC)cc1)c1cc2c(cc1OCC(=O)O)OCO2 (stereo not drawn)
-- reply 57.1

-- ask Check the records and state growth inhibition for CN(C)CCCCCCNCCC#N
-- reply -8.4

-- ask Check the records and state growth inhibition for COc1ccc(N2C(=O)C3c4[nH]c5ccccc5c4C4CCCCCCC4C3C2=O)cc1 (stereo not drawn)
-- reply 22.6

-- ask Check the records and state growth inhibition for CCOC(=O)C(NC(=O)NCc1ccc(F)cc1)C(F)(F)F (stereo not drawn)
-- reply -31.5

-- ask Check the records and state growth inhibition for COc1ccccc1Cn1nc(OC)c2cc([N+](=O)[O-])ccc21
-- reply -6.1

-- ask Check the records and state growth inhibition for CCCC(=O)C(C)C(=O)CC (stereo not drawn)
-- reply -15.7

-- ask Check the records and state growth inhibition for O=S(=O)(Nc1cccc(Cl)c1)c1ccc(Cl)cc1
-- reply 99.8

-- ask Check the records and state growth inhibition for CN(C)C(=S)Oc1ccc([N+](=O)[O-])cc1Cl
-- reply 4.95

-- ask Check the records and state growth inhibition for O=C(/C(=C(/Br)I)c1ccccc1)c1ccccc1
-- reply 26.6

-- ask Check the records and state growth inhibition for O=C1C2C3CC4C5CC(C1C53)C42 (stereo not drawn)
-- reply 3.35
